The reported measurements were obtained from patent EP4678629A1.

- Assay remarks: Size and polydispersity index (PDI) of the lipid nanoparticle by dynamic light scattering
- Assay type: physicochemical
- Test parameters: LNP encapsulating eGFP mRNA, ionizable lipid/DOPE/cholesterol/DMG-PEG2000 50/10/48.25/1.25 mol%, N/P 12; in nm (unit assumed)
Readout kind: Particle size

In: May I ask what Particle size has been recorded for CCCCCCCCCCCOC(=O)CN(CCCO)CCCN(CC(=O)OCCCCCCCCCCC)CC(=O)OCCCCCCCCCCC ?
Out: 96.91

In: Lookup CCCCCCCCCCCOC(=O)CCN(CCO)CCCN(CCC(=O)OCCCCCCCCCCC)CCC(=O)OCCCCCCCCCCC
Out: 86.08

In: Lookup CCCCCCCCCCCCCCOC(=O)CCCCCCN(CCCCO)CCCN(CCCCCCC(=O)OCCCCCCCCCCCCCC)CCCCCCC(=O)OCCCCCCCCCCCCCC
Out: 79.13

In: Lookup CCCCC/C=C\C/C=C\CCCCCCCCOC(=O)CCCCCCCN(CCO)CCCN(CCCCCCCC(=O)OCCCCCCCC/C=C\C/C=C\CCCCC)CCCCCCCC(=O)OCCCCCCCC/C=C\C/C=C\CCCCC
Out: 99.80

In: Lookup CCCCCCCCCCCCOC(=O)CCCCCCCN(CCCCO)CCCN(CCCCCCCC(=O)OCCCCCCCCCCCC)CCCCCCCC(=O)OCCCCCCCCCCCC
Out: 69.63

In: Lookup CCCCCCCCCCCCCOC(=O)CN(CCO)CCCN(CC(=O)OCCCCCCCCCCCCC)CC(=O)OCCCCCCCCCCCCC
Out: 74.60

###

- Assay remarks: Encapsulation efficiency of the lipid nanoparticle (eGFP mRNA) by Ribogreen method
- Format: physicochemical
- Test parameters: LNP encapsulating eGFP mRNA, ionizable lipid/DOPE/cholesterol/DMG-PEG2000 50/10/48.25/1.25 mol%, N/P 12
Readout kind: Encapsulation rate, % (%)

Worked examples follow.
In: May I ask what Encapsulation rate, % has been recorded for CCCCCCCCCCCCCCOC(=O)CCCCCN(CCCO)CCCN(CCCCCC(=O)OCCCCCCCCCCCCCC)CCCCCC(=O)OCCCCCCCCCCCCCC ?
Out: 98.91

In: Lookup CCCCCCCCCCCCOC(=O)CCCCCCCN(CCCCO)CCCN(CCCCCCCC(=O)OCCCCCCCCCCCC)CCCCCCCC(=O)OCCCCCCCCCCCC
Out: 99.18

In: Lookup CCCCCCCCCCCOC(=O)CCCN(CCCO)CCCCN(CCCC(=O)OCCCCCCCCCCC)CCCC(=O)OCCCCCCCCCCC
Out: 99.74

In: Lookup CCCCCCCCCCCOC(=O)CCCN(CCCO)CCCN(CCCC(=O)OCCCCCCCCCCC)CCCC(=O)OCCCCCCCCCCC
Out: 98.93

In: Lookup CCCCCCCCCCOC(=O)CCCN(CCCO)CCCCN(CCCC(=O)OCCCCCCCCCC)CCCC(=O)OCCCCCCCCCC
Out: 94.50

A = CCCCCCCCCCCCCOC(=O)CN(CCCO)CCCN(CC(=O)OCCCCCCCCCCCCC)CC(=O)OCCCCCCCCCCCCC
B = CCCCCCCOC(=O)CCCCCCCN(CCO)CCCN(CCCCCCCC(=O)OCCCCCCC)CCCCCCCC(=O)OCCCCCCC
In: Identify the item whose Encapsulation rate, % is the smaller number: A or B Answer = label.
Out: B

###

- Assay remarks: Size and polydispersity index (PDI) of the lipid nanoparticle by dynamic light scattering
- Assay type: physicochemical
- Test parameters: LNP encapsulating eGFP mRNA, ionizable lipid/DOPE/cholesterol/DMG-PEG2000 50/10/48.25/1.25 mol%, N/P 12
Readout kind: PDI

In: May I ask what PDI has been recorded for CCCCC/C=C\C/C=C\CCCCCCCCOC(=O)CCCCN(CCCO)CCCN(CCCCC(=O)OCCCCCCCC/C=C\C/C=C\CCCCC)CCCCC(=O)OCCCCCCCC/C=C\C/C=C\CCCCC [Example 111] ?
Out: 0.12

In: Lookup CCCCCCCCCCCCOC(=O)CCCCCCN(CCCO)CCCN(CCCCCCC(=O)OCCCCCCCCCCCC)CCCCCCC(=O)OCCCCCCCCCCCC [Example 48]
Out: 0.16

In: Lookup CCCCCCCCCCCOC(=O)CCN(CCCO)CCCN(CCC(=O)OCCCCCCCCCCC)CCC(=O)OCCCCCCCCCCC [Example 68]
Out: 0.18

In: Lookup CCCCCCCCCCCCOC(=O)CCCN(CCCO)CCCCN(CCCC(=O)OCCCCCCCCCCCC)CCCC(=O)OCCCCCCCCCCCC [Example 103]
Out: 0.14

In: Lookup CCCCCCCCCCCOC(=O)CCCCCN(CCO)CCCN(CCCCCC(=O)OCCCCCCCCCCC)CCCCCC(=O)OCCCCCCCCCCC [Example 11]
Out: 0.17

In: Lookup CCCCCCCCCCCOC(=O)CCCCCN(CCCCO)CCCN(CCCCCC(=O)OCCCCCCCCCCC)CCCCCC(=O)OCCCCCCCCCCC [Example 28]
Out: 0.17

###

- Assay remarks: Encapsulation efficiency of the lipid nanoparticle (eGFP mRNA) by Ribogreen method
- Assay type: physicochemical
- Test parameters: LNP encapsulating eGFP mRNA, ionizable lipid/DOPE/cholesterol/DMG-PEG2000 50/10/48.25/1.25 mol%, N/P 12
Readout kind: Encapsulation rate, % (%)

In: May I ask what Encapsulation rate, % has been recorded for CCCCCOC(=O)CCCCCCCN(CCO)CCCN(CCCCCCCC(=O)OCCCCC)CCCCCCCC(=O)OCCCCC ?
Out: 94.14

In: Lookup CCCCCCCCCCCOC(=O)CCCCCCCN(CCCCO)CCCN(CCCCCCCC(=O)OCCCCCCCCCCC)CCCCCCCC(=O)OCCCCCCCCCCC
Out: 79.02

In: Lookup CCCCC/C=C\C/C=C\CCCCCCCCOC(=O)CCCCN(CCCO)CCCN(CCCCC(=O)OCCCCCCCC/C=C\C/C=C\CCCCC)CCCCC(=O)OCCCCCCCC/C=C\C/C=C\CCCCC
Out: 92.91

In: Lookup CCCCCCCCCCCCOC(=O)CCCN(CCCO)CCCCN(CCCC(=O)OCCCCCCCCCCCC)CCCC(=O)OCCCCCCCCCCCC [Example 84]
Out: 97.58

In: Lookup CCCCCCCCCCCCCOC(=O)CCCCCCCN(CCO)CCCN(CCCCCCCC(=O)OCCCCCCCCCCCCC)CCCCCCCC(=O)OCCCCCCCCCCCCC [Example 90]
Out: 94.33

In: Lookup CC/C=C\C/C=C\CCCOC(=O)CCCCCCCN(CCO)CCCN(CCCCCCCC(=O)OCCC/C=C\C/C=C\CC)CCCCCCCC(=O)OCCC/C=C\C/C=C\CC
Out: 86.64

In: Lookup CCCCCCCCCCCOC(=O)CCCCCCCN(CCCCCCCC(=O)OCCCCCCCCCCC)CCCN(CCCO)CCCN(CCCCCCCC(=O)OCCCCCCCCCCC)CCCCCCCC(=O)OCCCCCCCCCCC
Out: 91.32

In: Lookup CCCCC/C=C\C/C=C\CCCCCCCCOC(=O)CCCN(CCCO)CCCN(CCCC(=O)OCCCCCCCC/C=C\C/C=C\CCCCC)CCCC(=O)OCCCCCCCC/C=C\C/C=C\CCCCC [Example 108]
Out: 92.30

In: Lookup CCCCCCCCCCCCCOC(=O)CCCCCCCN(CCO)CCCN(CCCCCCCC(=O)OCCCCCCCCCCCCC)CCCCCCCC(=O)OCCCCCCCCCCCCC [Example 13]
Out: 96.34

In: Lookup CCCCCCCCCCCCCOC(=O)CCCCCCN(CCCO)CCCN(CCCCCCC(=O)OCCCCCCCCCCCCC)CCCCCCC(=O)OCCCCCCCCCCCCC
Out: 99.39

In: Lookup CCCCCCCCCCCOC(=O)CCCCN(CCCO)CCCN(CCCCC(=O)OCCCCCCCCCCC)CCCCC(=O)OCCCCCCCCCCC
Out: 98.13

In: Lookup CCCCCCCCCCCOC(=O)CCCCCCCCCN(CCO)CCCN(CCCCCCCCCC(=O)OCCCCCCCCCCC)CCCCCCCCCC(=O)OCCCCCCCCCCC [Example 91]
Out: 79.63

###

- Assay remarks: Size and polydispersity index (PDI) of the lipid nanoparticle by dynamic light scattering
- Assay type: physicochemical
- Test parameters: LNP encapsulating eGFP mRNA, ionizable lipid/DOPE/cholesterol/DMG-PEG2000 50/10/48.25/1.25 mol%, N/P 12; in nm (unit assumed)
Readout kind: Particle size

In: May I ask what Particle size has been recorded for CCCCC/C=C\C/C=C\CCCCCCCCOC(=O)CCCN(CCCO)CCCCN(CCCC(=O)OCCCCCCCC/C=C\C/C=C\CCCCC)CCCC(=O)OCCCCCCCC/C=C\C/C=C\CCCCC ?
Out: 96.38

In: Lookup CCCCCCCCCCCCCCOC(=O)CCCCCCN(CCO)CCCN(CCCCCCC(=O)OCCCCCCCCCCCCCC)CCCCCCC(=O)OCCCCCCCCCCCCCC
Out: 64.31

In: Lookup CCCCCCCCCCCCCOC(=O)CCN(CCCCO)CCCN(CCC(=O)OCCCCCCCCCCCCC)CCC(=O)OCCCCCCCCCCCCC
Out: 99.70

In: Lookup CCCCCCCCCCCCCCOC(=O)CCCCCCCN(CCCO)CCCN(CCCCCCCC(=O)OCCCCCCCCCCCCCC)CCCCCCCC(=O)OCCCCCCCCCCCCCC
Out: 65.40

In: Lookup CCCCCCCCCCCOC(=O)CCCCCN(CCO)CCCN(CCCCCC(=O)OCCCCCCCCCCC)CCCCCC(=O)OCCCCCCCCCCC
Out: 97.96

In: Lookup CCCCCCCCCCCCOC(=O)CCCCCCCN(CCCO)CCCN(CCCCCCCC(=O)OCCCCCCCCCCCC)CCCCCCCC(=O)OCCCCCCCCCCCC
Out: 75.07
